- TEST_SUMMARY: Human HepG2 cell viability assay in 384 well format
- Format: toxicity, cell-based
- Design: dose 125 nL, time 70.5 hour; concentration not given beside the values
- ASSAY_CONDITIONS: HepG2 cells, read-out: Inhibition
MEASURED_PROPERTY: cytotoxicity at 70.5 h (%)
Form entry: value (%) — number only.

Cc1nccn1-c1ccc(CNS(=O)(=O)N2CCCCC2C)cn1 (stereo unspecified) : -3.35
CCN(CC(=O)NC)S(=O)(=O)N1CCCCCC1 : -10.4
CC(C)c1nnc2n1CCN(CCC(=O)N1CCc3ccccc31)C2 : -5.29

Reported cytotoxicity at 70.5 h of `Cc1cccc(CN2C[C@@H]3CN(C(=O)c4ccco4)C[C@@H]3C2=O)n1` : -13.1

// field: cytotoxicity at 70.5 h; key: `CCSCCC(=O)NCc1cnn(-c2ccc(F)cc2F)c1` ; value = 7.31

The recorded cytotoxicity at 70.5 h for `O=C(c1ccncn1)N1C[C@H]2CCC[C@@]2(COCC2CCOCC2)C1` is -14.6
